Attribution: PubChem BioAssay (NCI)

# Test system: TK-10 renal
# protocol.notes: NCI tumour cell line growth inhibition, 48 h
Can you tell me TGI for the items I'm about to list?
One number for each entry, in µM.

INSERT INTO results (smiles_data, observed_measurement) VALUES
  ('c1ccc2c(-c3cnn4cc(-c5ccc(N6CCNCC6)cc5)cnc34)ccnc2c1', 3.2);

Consider the record given below.
The measured TGI associated with "Cc1ccc(S(=O)(=O)N[C@@H](Cc2ccccc2)C(=O)CCl)cc1" reads 41.7

* * *

# System: UACC-62 melanoma
# protocol.notes: NCI tumour cell line growth inhibition, 48 h
readout.name: TGI

INSERT INTO results (molecule, readout_name, observed_measurement) VALUES
  ('OCCSCC/C(=N\N=C(/CCSCCO)c1ccccc1)c1ccccc1', 'TGI', '> 100 µM'),
  ('CC(C)C[C@H]1C(=O)N2CCC[C@H]2[C@]2(O)O[C@](NC(=O)[C@@H]3C=C4c5cccc6[nH]c(Br)c(c56)C[C@H]4N(C)C3)(C(C)C)C(=O)N12', 'TGI', '> 100 µM'),
  ('C[C@@H]1CC[C@@H]2[C@@H]1[C@H](OC(=O)c1ccc3ccccc3c1)[C@]1(C3CCCCC3)C[C@@H](OC(=O)CO)[C@@]2(C)O1', 'TGI', '28.5 µM');

// batch mode: one TGI value per listed entry
1. COc1cc(/C=C2\C(=O)N(c3ccc(NC(C)=O)cc3)C(c3ccccc3)S2(=O)=O)cc(OC)c1OC (stereo unspecified)
2. O=C(NN1C(=O)C(Cl)C1c1cccc(Cl)c1)c1ccccc1O (stereo unspecified)

Reply:
1. > 100 µM
2. > 100 µM

Hi there! I need TGI for each item below, if you can.
1. O=C1COc2cc3c(cc2N1)SCCC(=O)N3
2. COc1ccccc1Nc1nc2ccccc2c2occc12

Reply:
["> 100 µM", "26.4 µM"]
